assay: self-splicing fitness, log relative to wild type (ln ratio); higher = more splicing; Tetrahymena group I intron in knt gene, E. coli kanamycin selection, DiMSum; sequences stand for … in CUCUCU…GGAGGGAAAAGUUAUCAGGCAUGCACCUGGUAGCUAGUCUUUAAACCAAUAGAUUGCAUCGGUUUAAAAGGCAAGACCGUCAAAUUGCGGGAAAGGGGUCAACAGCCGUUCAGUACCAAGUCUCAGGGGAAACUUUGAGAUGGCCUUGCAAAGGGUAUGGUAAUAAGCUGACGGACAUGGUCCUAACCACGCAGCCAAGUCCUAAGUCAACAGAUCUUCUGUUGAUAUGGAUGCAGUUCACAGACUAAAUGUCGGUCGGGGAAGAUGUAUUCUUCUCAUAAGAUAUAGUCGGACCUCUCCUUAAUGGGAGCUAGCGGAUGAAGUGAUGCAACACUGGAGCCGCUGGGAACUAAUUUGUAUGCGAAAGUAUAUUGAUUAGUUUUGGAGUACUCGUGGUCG; settings: 30 °C;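 note: selection with 25 µg/mL kanamycin versus none on LB agar overnight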
Quick rule for you: self-splicing fitness (ln) at -3 or higher means true, lower means false.

Take a look at these entries with their results.
>>> classification("UAGAAGCAAUAUUACGCAGC")
"false"
>>> classification("AAUCAGCAAUAUUACGGCAG")
"true"
>>> classification("AGAGAGCAAUAUUACGACGG")
"false"
>>> classification("CACCAGCAAUAUUACGGCGG")
"true"

Could you now look at the following sequence, please?
Ask | Check this sequence for self-splicing fitness (ln) at or above -3: UUACAGCAAUAUUACGUAUC
Reply | false

---

assay: self-splicing fitness, log relative to wild type (ln ratio); higher = more splicing; Tetrahymena group I intron in knt gene, E. coli kanamycin selection, DiMSum; sequences stand for … in CUCUCU…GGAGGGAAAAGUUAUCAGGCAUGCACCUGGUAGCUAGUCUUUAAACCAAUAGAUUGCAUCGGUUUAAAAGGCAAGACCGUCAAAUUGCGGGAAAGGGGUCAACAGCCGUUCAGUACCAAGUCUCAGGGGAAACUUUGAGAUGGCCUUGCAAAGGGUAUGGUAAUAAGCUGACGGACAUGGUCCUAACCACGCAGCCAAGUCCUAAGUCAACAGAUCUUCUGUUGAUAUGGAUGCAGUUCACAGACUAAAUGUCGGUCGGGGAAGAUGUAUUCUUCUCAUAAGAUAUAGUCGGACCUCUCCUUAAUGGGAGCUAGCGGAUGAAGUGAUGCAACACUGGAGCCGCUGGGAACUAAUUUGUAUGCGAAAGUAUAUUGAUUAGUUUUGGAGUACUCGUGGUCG; details: 37 °C
# key: entry, value: self-splicing fitness (ln)
// no unit string in output, number only

>>> experimental_result("UGGGAGCAAUAUUACGAGUG")
-0.927
>>> experimental_result("CGGGAGCAAUAUUACGGAUG")
-2.75

Now let's try a different one.
Ask | # query: self-splicing fitness (ln) of entry UGUUAGCAAUAUUACGAGCC
Reply | -0.493

---

experiment: self-splicing fitness, log relative to wild type (ln ratio); higher = more splicing; Tetrahymena group I intron in knt gene, E. coli kanamycin selection, DiMSum; sequences stand for … in CUCUCU…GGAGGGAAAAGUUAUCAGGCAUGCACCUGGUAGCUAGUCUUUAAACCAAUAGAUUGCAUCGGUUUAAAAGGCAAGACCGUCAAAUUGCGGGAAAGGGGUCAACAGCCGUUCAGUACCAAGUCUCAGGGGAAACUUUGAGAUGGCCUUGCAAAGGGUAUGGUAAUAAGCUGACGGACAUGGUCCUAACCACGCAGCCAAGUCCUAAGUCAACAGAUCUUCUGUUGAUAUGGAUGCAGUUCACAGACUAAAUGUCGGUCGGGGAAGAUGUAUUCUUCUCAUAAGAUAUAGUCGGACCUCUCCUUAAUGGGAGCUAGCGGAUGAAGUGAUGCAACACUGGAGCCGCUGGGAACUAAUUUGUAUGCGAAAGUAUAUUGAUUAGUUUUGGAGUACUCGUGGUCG; conditions: 37 °C
Hi all, reminder that labels come from self-splicing fitness (ln), split as group A: < -2; group B: ≥ -2 and < -1; group C: ≥ -1

>>> classification("ACGCAGCAAUAUUACGGCCU")
"group C"

Ask | In plain terms, what class is AGUGAGCAAUAUUACGUUGC ?
Reply | group A

Ask | Also check GUCAAGCAAUAUUACGUUAU
Reply | group B

Ask | Lookup UCCAAGCAAUAUUACGAACU
Reply | group B

---

test: self-splicing fitness, log relative to wild type (ln ratio); higher = more splicing; Tetrahymena group I intron in knt gene, E. coli kanamycin selection, DiMSum; sequences stand for … in CUCUCU…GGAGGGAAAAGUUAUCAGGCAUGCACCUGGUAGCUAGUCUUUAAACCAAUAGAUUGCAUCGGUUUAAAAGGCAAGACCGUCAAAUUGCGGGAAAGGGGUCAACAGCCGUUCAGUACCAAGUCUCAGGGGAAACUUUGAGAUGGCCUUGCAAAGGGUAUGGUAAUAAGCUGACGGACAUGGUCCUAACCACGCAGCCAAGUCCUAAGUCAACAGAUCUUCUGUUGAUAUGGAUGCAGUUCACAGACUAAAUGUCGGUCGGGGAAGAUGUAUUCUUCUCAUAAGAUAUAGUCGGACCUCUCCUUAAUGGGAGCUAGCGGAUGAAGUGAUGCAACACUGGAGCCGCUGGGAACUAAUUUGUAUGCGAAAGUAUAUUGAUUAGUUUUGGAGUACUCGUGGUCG; conditions: 37 °C
readout-name: self-splicing fitness (ln)
Number only, please.

Sample answers from the record:
>>> experimental_result("UCACAGCAAUAUUACGCAAU")
-2.13
>>> experimental_result("GACUAGCAAUAUUACGUCUU")
-1.39
>>> experimental_result("UGAUAGCAAUAUUACGCAAG")
-2.3

Ask | Endpoint output: self-splicing fitness (ln) of GUAGAGCAAUAUUACGCUAA . Value?
Reply | -0.264

Ask | # repeat for UGCGAGCAAUAUUACGUGGU
Reply | -2.63

Ask | Further, for AUCAAGCAAUAUUACGUAAG ?
Reply | -1.45

Ask | Repeat for the following sequence: UCGUAGCAAUAUUACGUCCU
Reply | -1.63

Ask | Also, UUUUAGCAAUAUUACGCUGU please.
Reply | -1.98

Ask | Likewise for ACAUAGCAAUAUUACGCCCA ?
Reply | -0.85

Ask | Request: AUAAAGCAAUAUUACGAUCC
Reply | -0.716

Ask | # repeat for ACAGAGCAAUAUUACGACAA
Reply | -2.31

Ask | Now the sequence UAGGAGCAAUAUUACGAUAC
Reply | -1.86

Ask | Can you handle ACACAGCAAUAUUACGUUUU next?
Reply | -2.57

Ask | Same question for GCCCAGCAAUAUUACGCCAC please.
Reply | -2.44

Ask | Also, UUAGAGCAAUAUUACGGUGC please.
Reply | -2.11

Ask | What about this sequence? GGCCAGCAAUAUUACGUACA
Reply | -1.71

Ask | Also CGGCAGCAAUAUUACGAUGG , if possible.
Reply | -0.741

Ask | Request: AGAUAGCAAUAUUACGAAGU
Reply | -1.83

Ask | Next: GUUGAGCAAUAUUACGAUAG
Reply | -3.04

---

assay: self-splicing fitness, log relative to wild type (ln ratio); higher = more splicing; Tetrahymena group I intron in knt gene, E. coli kanamycin selection, DiMSum; sequences stand for … in CUCUCU…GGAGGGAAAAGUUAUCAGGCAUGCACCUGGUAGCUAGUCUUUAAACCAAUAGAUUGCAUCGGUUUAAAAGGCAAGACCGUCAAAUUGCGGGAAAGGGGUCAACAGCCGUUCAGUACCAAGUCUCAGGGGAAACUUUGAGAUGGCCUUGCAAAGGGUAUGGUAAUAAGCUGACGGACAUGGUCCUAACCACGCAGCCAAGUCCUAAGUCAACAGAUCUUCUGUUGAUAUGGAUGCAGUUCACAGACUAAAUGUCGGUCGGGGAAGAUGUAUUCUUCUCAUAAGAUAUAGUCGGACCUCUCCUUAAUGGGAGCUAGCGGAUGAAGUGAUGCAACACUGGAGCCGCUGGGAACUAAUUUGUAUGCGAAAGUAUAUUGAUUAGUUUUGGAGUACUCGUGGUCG; details: 37 °C
Is self-splicing fitness (ln) at least -0.4? Then true. If not, false.

Ask | Could you tell me if the measured self-splicing fitness (ln) of UCACAGCAAUAUUACGGCAG reaches -0.4 or more?
Reply | false

Ask | Would you mind doing GUCCAGCAAUAUUACGGCAA as well?
Reply | true

Ask | Quick one: AUGUAGCAAUAUUACGUGUU
Reply | false

---

assay: self-splicing fitness, log relative to wild type (ln ratio); higher = more splicing; Tetrahymena group I intron in knt gene, E. coli kanamycin selection, DiMSum; sequences stand for … in CUCUCU…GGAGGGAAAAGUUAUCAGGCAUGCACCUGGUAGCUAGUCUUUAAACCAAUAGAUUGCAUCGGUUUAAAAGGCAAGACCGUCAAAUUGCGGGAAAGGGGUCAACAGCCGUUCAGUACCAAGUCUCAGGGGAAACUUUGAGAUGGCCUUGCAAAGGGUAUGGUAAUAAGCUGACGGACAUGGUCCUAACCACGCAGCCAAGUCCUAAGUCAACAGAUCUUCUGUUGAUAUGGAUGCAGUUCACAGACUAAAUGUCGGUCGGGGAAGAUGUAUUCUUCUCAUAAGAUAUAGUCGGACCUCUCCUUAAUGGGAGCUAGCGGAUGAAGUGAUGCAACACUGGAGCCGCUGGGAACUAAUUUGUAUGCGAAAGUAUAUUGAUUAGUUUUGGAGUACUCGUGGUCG; conditions: 30 °C
Response key: y means self-splicing fitness (ln) >= -2; n means self-splicing fitness (ln) < -2.

>>> classification("CUCUAGCAAUAUUACGAACC")
"n"

Ask | Could you verify whether the entry CUCGAGCAAUAUUACGUGAU shows self-splicing fitness (ln) of no less than -2?
Reply | n

Ask | Same thing, different sequence: AAACAGCAAUAUUACGCGAG
Reply | y

Ask | Here is the next sequence: GCGAAGCAAUAUUACGGCGU
Reply | n

Ask | Also UGCCAGCAAUAUUACGGAAA , if possible.
Reply | y

Ask | Okay, and CACGAGCAAUAUUACGGGCG ?
Reply | y

Ask | Another sequence to check: ACAAAGCAAUAUUACGCCCG
Reply | y

Ask | Next sequence up: GGCCAGCAAUAUUACGGCGG
Reply | y

Ask | Proceed to UACCAGCAAUAUUACGUAUG
Reply | n

Ask | Consider next the sequence UCGUAGCAAUAUUACGCUUU in the same way.
Reply | n

Ask | // same read-out, input: UUGUAGCAAUAUUACGCAAU
Reply | n

Ask | Try this sequence next: CACAAGCAAUAUUACGACAU
Reply | n

Ask | GGUAAGCAAUAUUACGAGUU , same question.
Reply | y

Ask | Please do the same for AGCUAGCAAUAUUACGUAGU as well.
Reply | n

Ask | How about this sequence: AGAGAGCAAUAUUACGGUUC
Reply | n
